# targetOfAssay: PI3Kβ
# Sequence (Q8BTI9 whole entry): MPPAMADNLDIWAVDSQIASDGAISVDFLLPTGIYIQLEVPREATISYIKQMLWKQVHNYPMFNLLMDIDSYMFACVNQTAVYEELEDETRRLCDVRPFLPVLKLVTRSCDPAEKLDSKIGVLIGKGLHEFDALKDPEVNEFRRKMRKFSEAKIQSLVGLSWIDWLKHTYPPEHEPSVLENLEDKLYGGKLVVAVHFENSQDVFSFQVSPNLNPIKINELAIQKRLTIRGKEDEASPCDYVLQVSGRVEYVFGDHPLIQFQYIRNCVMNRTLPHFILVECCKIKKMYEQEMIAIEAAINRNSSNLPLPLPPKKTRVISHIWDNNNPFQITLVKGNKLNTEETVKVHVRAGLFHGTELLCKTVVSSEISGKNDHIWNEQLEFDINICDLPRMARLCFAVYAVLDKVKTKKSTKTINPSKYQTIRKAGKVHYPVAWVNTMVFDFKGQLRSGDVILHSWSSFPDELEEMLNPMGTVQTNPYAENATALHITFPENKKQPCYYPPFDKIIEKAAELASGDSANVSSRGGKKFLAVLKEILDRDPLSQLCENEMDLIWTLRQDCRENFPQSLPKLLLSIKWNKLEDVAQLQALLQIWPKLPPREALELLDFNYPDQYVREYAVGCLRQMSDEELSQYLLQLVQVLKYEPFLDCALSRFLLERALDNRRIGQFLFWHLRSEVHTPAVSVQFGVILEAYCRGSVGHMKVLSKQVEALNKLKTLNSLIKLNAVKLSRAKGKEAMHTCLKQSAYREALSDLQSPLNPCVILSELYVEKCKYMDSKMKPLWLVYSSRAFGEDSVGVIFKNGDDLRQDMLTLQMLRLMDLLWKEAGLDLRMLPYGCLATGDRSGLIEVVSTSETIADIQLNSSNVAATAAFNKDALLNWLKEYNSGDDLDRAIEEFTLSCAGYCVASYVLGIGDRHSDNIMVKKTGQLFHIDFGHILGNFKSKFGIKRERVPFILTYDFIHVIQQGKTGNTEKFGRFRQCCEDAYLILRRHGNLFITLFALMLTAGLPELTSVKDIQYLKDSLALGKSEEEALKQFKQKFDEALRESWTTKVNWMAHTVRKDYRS
# testMethodNotes: PI3 Kinase HTRF assay, PI3Kβ
# Assay type: biochemical, human
# condition: 10 μM PIP2, 10 μM ATP; 'Greater than 10 μM' and 'Greater than 1 μM to 10 μM'; read-out: PI3K β IC50
pIC50: −log10 of the molar value.
recordedEndpoint: pIC50

Record "C[C@H](Nc1ncnn2ccnc12)c1cc2cccc(Cl)c2c(=O)n1-c1cccc(F)c1" . Reported pIC50: 5.00 to 6.00

Sample "C[C@H](Nc1ncnc2cccnc12)c1cc2ccc(F)cc2c(=O)n1-c1ccccc1" ; pIC50 observed: 5.00 to 6.00

pIC50 reported for this compound "COc1nc(N[C@@H](C)c2cc3cccc(Cl)c3c(=O)n2-c2ccccc2)c2ncccc2n1" : < 5.00

Looking up "C[C@H](Nc1cc(Cl)nn2ccnc12)c1cc2cccc(-c3cnn(C)c3)c2c(=O)n1-c1cccc(F)c1" , I see its pIC50 listed as < 5.00

response.value for Cc1ccnc2cc(C(C)Nc3ncnc4cccnc34)n(-c3ccccc3)c(=O)c12 (stereo not shown) (field: pIC50) = 5.00 to 6.00

For record "CNc1nc(N[C@@H](C)c2cc3cccc(-c4cnc(OC)nc4)c3c(=O)n2-c2ccccc2)c2ncccc2n1" the listed pIC50 is < 5.00

pIC50 in this record for "C[C@H](Nc1ncnc2cccnc12)c1cc2cccc(-c3cnn(C)c3)c2c(=O)n1C1CC1" : 5.00 to 6.00

pIC50 for "Cc1cn2nccc(N[C@@H](C)c3cc4cccc(Cl)c4c(=O)n3-c3cccc(F)c3)c2n1" is < 5.00

compound "C[C@H](Nc1nc(O)nc2cccnc12)c1cc2cccc(C(F)(F)F)c2c(=O)n1-c1cccc(F)c1" , pIC50 observed: < 5.00

Lab note: measured pIC50 of "C[C@H](Nc1nc(N)ncc1C(F)(F)F)c1cc2cccc(C(F)(F)F)c2c(=O)n1-c1ccccc1" was 5.00 to 6.00

# pIC50 of "C[C@H](Nc1nc(N)nc2cccnc12)c1cc2cccc(-c3ccnnc3)c2c(=O)n1-c1ccccc1" = 5.00 to 6.00

The recorded pIC50 for "C[C@H](Nc1ncnc2cccnc12)c1cc2cccc(-c3cnn(C)c3)c2c(=O)n1-c1cccc(F)c1" is < 5.00

Measured pIC50 of "C[C@H](Nc1ncc2[nH]cnc2n1)c1cc2cccc(Cl)c2c(=O)n1-c1ccccc1" : < 5.00

Entry "CNc1nc(N[C@@H](C)c2cc3cccc(-c4cnc(C)nc4)c3c(=O)n2-c2ccccc2)c2ncccc2n1" , pIC50 reported as < 5.00

Recorded result, "C[C@H](Nc1ncnn2cncc12)c1cc2cccc(Cl)c2c(=O)n1-c1cccc(F)c1" , pIC50: < 5.00

In plain terms, "C[C@H](Nc1ncnc2cccnc12)c1cc2scc(C(F)(F)F)c2c(=O)n1-c1ccccc1" has a documented pIC50 of < 5.00
